target: HLA-A*30:01; experiment: IEDB peptide-MHC binding, purified MHC/competitive/radioactivity; filed as Kd, often an IC50 or EC50 that approximates it; bounds were set here for any values at or beyond the usual limits of such assays; conditions: source organism: Vaccinia virus WR
In this section, each of the sequences is paired with its reported Kd.
measurement label: Kd

>>> result("KMRDTLPAK")
"1.58 nM"
>>> result("AAMISLAKK")
"151 nM"
>>> result("HVKIPTHLT")
"224 nM"
>>> result("KNKESLPML")
"18.3 nM"
>>> result("KSSPETQQM")
"1130 nM"
>>> result("KGKAAAFAK")
"3.12 nM"
>>> result("KVHEISARG")
"176 nM"
>>> result("KTMGSCIQM")
"52.3 nM"
>>> result("KISISSLCK")
"88.1 nM"
>>> result("KSIEQHPVV")
"2.7 nM"
>>> result("FIRYRMHPM")
"2790 nM"
>>> result("LTFKACDHI")
"81.5 nM"
>>> result("GTKIALLEL")
"1.34 nM"
>>> result("ITKINTHLA")
"14.9 nM"
>>> result("RVRYLTRNY")
"5.62 nM"
>>> result("KSRVERVQV")
"11.2 nM"
